Data origin, for the record: paper PMC9155639

- targetOrSystem: BpMip (Burkholderia pseudomallei)
- testMethodNotes: biochemical
- testConditions: Ki (μM) Mean
reportedEndpoint: Ki (µM)
# unit: µM | format: bare number

**Query** Looking for the measured Ki of "COc1cc(NC(=O)CCNC(=O)[C@@H]2CCCCN2S(=O)(=O)Cc2ccccc2)cc(OC)c1OC" , can you help?
**Result** 0.45

---

- targetOrSystem: BpMip (Burkholderia pseudomallei)
- testMethodNotes: biochemical
reportedEndpoint: pKd
Quick note: pKd values are minus log10 of concentrations in mol/L.

**Query** Looking for the measured pKd of "COc1cc(NC(=O)CCNC(=O)[C@@H]2CCCCN2S(=O)(=O)Cc2ccccc2)cc(OC)c1OC" , can you help?
**Result** 4.96

---

- targetOrSystem: BpMip (Burkholderia pseudomallei, UniProt Q63J95)
- Sequence (Q63J95 whole entry, added parts left off): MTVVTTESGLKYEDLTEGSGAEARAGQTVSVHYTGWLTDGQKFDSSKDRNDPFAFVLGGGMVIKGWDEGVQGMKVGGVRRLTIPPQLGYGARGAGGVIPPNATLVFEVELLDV
- testMethodNotes: biochemical
reportedEndpoint: IC50 (nM)
# unit: nM | format: bare number

**Query** Looking for the measured IC50 of COc1cc(NC(=O)CCNC(=O)[C@@H]2CCCCN2S(=O)(=O)Cc2ccccc2)cc(OC)c1OC [SF339] , can you help?
**Result** 260
